# System: DU-145
# Assay procedure: Antiproliferative activity against AR-negative human DU145 cells assessed as reduction in cell viability incubated for 3 days by MTT assay
# Experimental context: DU-145, 72 h
Recorded IC50, one value per entry.
Use µM as the unit, but write only the number.

                                   compound  measurement_label  reported_result
0  C=CC(=O)Nc1ccc(-c2cc(=O)c3c(O)cc(OC)c(OC(C)C)c3o2)cc1               IC50             14.7

# ---- query compound ----
For this compound ( CNC(=O)c1ccc(N2C(=S)N(c3ccc(C#N)c(C(F)(F)F)c3)C(=O)C2(C)C)cc1F [ENZALUTAMIDE] ), measured IC50 is 45.3
